assay-procedure: Drug uptake in ICR mouse brain at 5 mg/kg, ip measured after 60 mins by HPLC-MS analysis
Type: ADME, organism-based
condition-description: read-out: Drug uptake
Each entry below carries its recorded log10(concentration at 1 h).
property-label: log10(concentration at 1 h) (log10 of the value in nM)

> print(dat)
                  structure.string               property.label  recorded.result
1   COc1ccc2nc3c(c(N)c2c1)CCCC3.Cl  log10(concentration at 1 h)             2.51
2   Cl.Nc1c2c(nc3ccc(Br)cc13)CCCC2  log10(concentration at 1 h)             2.34
3    Cl.Nc1c2c(nc3ccc(Cl)cc13)CCC2  log10(concentration at 1 h)             2.24
4    Cc1ccc2c(N)c3c(nc2c1)CCCC3.Cl  log10(concentration at 1 h)             2.40
5  Cl.Nc1c2c(nc3cccc(Cl)c13)CCCCC2  log10(concentration at 1 h)             1.51
6    Cl.Nc1c2c(nc3ccc(Br)cc13)CCC2  log10(concentration at 1 h)             2.06
